# System: MCF-7 (breast cancer)
# ASSAY_SUMMARY: MTS cell viability assay, MCF-7
# Assay type: cell-based
# RUN_CONDITIONS: 72 h
Non-standard residues stand in square brackets, D forms with d. Residues, ends and D or L forms follow the SMILES beside them. Nspe = C[C@H](NCC(=O)O)c1ccccc1; Nphe = O=C(O)CNCc1ccccc1; Nlys = NCCCCNCC(=O)O
Collected LC50 MCF-7 (breast cancer) values appear next to each entry.
Supply the numeric figure in µM, leaving out any unit text.

Use the examples below as a reference point.
| COMPOUND | UNIT_LABEL | LC50 MCF-7 (breast cancer) |
| --- | --- | --- |
| C[C@@H](c1ccccc1)N(CC(N)=O)C(=O)CN(C(=O)CN(CCCCN)C(=O)CN(Cc1ccccc1)C(=O)CN(Cc1ccccc1)C(=O)CN(CCCCN)C(=O)CN(C(=O)CN(C(=O)CN(CCCCN)C(=O)CN(Cc1ccccc1)C(=O)CN(Cc1ccccc1)C(=O)CNCCCCN)[C@@H](C)c1ccccc1)[C@@H](C)c1ccccc1)[C@@H](C)c1ccccc1 [1-Npm2,3,8,9, H-(NLys-Npm-Npm-NLys-Nspe-Nspe)2-NH2] | µM | 9 |
| C[C@@H](c1ccccc1)N(CC(N)=O)C(=O)CN(CCCCN)C(=O)CN(CCCCN)C(=O)CN(C(=O)CN(C(=O)CN(CCCCN)C(=O)CN(C(=O)CN(CCCCN)C(=O)CN(CCCCN)C(=O)CN(C(=O)CN(C(=O)CNCCCCN)[C@@H](C)c1ccccc1)[C@@H](C)c1ccccc1)[C@@H](C)c1ccccc1)[C@@H](C)c1ccccc1)[C@@H](C)c1ccccc1 [1-NLys5,11, H-(NLys-Nspe-Nspe-NLys-NLys-Nspe)2-NH2] (H-[Nlys][Nspe][Nspe][Nlys][Nlys][Nspe][Nlys][Nspe][Nspe][Nlys][Nlys][Nspe]-NH2) | µM | 31 |
| C[C@@H](c1ccccc1)N(CC(N)=O)C(=O)CN(CCCCN)C(=O)CN(C(=O)CN(C(=O)CN(CCCCN)C(=O)CN(C(=O)CN(C(=O)CN(CCCCN)C(=O)CN(C(=O)CN(C(=O)CNCCCCN)[C@@H](C)c1ccccc1)[C@@H](C)c1ccccc1)[C@@H](C)c1ccccc1)[C@@H](C)c1ccccc1)[C@@H](C)c1ccccc1)[C@@H](C)c1ccccc1 [1 11mer, H-(NLys-Nspe-Nspe)3-NLys-Nspe-NH2] (H-[Nlys][Nspe][Nspe][Nlys][Nspe][Nspe][Nlys][Nspe][Nspe][Nlys][Nspe]-NH2) | µM | 11 |
| C[C@@H](c1ccccc1)N(CC(=O)N(CC(=O)N(CCCCN)CC(=O)N(CC(=O)N(CC(=O)N(CCCCN)CC(=O)N(CC(=O)N(CC(=O)N(CCCCN)CC(=O)N(CC(=O)N(CC(N)=O)Cc1ccccc1)Cc1ccccc1)Cc1ccccc1)Cc1ccccc1)Cc1ccccc1)Cc1ccccc1)Cc1ccccc1)C(=O)CNCCCCN [1 achiral-Nspe2, H-NLys-Nspe-Npm-(NLys-Npm-Npm)3-NH2] (H-[Nlys][Nspe][Nphe][Nlys][Nphe][Nphe][Nlys][Nphe][Nphe][Nlys][Nphe][Nphe]-NH2) | µM | 13 |

Enquiry: Request the reported LC50 MCF-7 (breast cancer) associated with C[C@@H](c1ccccc1)N(CC(N)=O)C(=O)CN(C(=O)CN(CCCCN)C(=O)CN(C(=O)CN(C(=O)CN(CCCCN)C(=O)CN(C(=O)CN(C(=O)CNCCCCN)[C@@H](C)c1ccccc1)[C@@H](C)c1ccccc1)[C@@H](C)c1ccccc1)[C@@H](C)c1ccccc1)[C@@H](C)c1ccccc1 [1 9mer, H-(NLys-Nspe-Nspe)3-NH2] (H-[Nlys][Nspe][Nspe][Nlys][Nspe][Nspe][Nlys][Nspe][Nspe]-NH2)
Return: 30

----------
# Tested on: MCF-7 (breast cancer)
# ASSAY_SUMMARY: MTS cell viability assay, MCF-7
# Format: cell-based
# RUN_CONDITIONS: 72 h
Non-standard residues stand in square brackets, D forms with d. Residues, ends and D or L forms follow the SMILES beside them. Nspe = C[C@H](NCC(=O)O)c1ccccc1; Nphe = O=C(O)CNCc1ccccc1; Nlys = NCCCCNCC(=O)O
EXPERIMENTAL_READOUT: LC50 MCF-7 (breast cancer) (µM)
Supply the numeric figure in µM, leaving out any unit text.

| MOLECULE | EXPERIMENTAL_READOUT | UNIT_LABEL | REPORTED_VALUE |
| --- | --- | --- | --- |
| NCCCCNCC(=O)N(CC(=O)N(CC(=O)N(CCCCN)CC(=O)N(CC(=O)N(CC(=O)N(CCCCN)CC(=O)N(CC(=O)N(CC(=O)N(CCCCN)CC(=O)N(CC(=O)N(CC(N)=O)Cc1ccccc1)Cc1ccccc1)Cc1ccccc1)Cc1ccccc1)Cc1ccccc1)Cc1ccccc1)Cc1ccccc1)Cc1ccccc1 [1 achiral, H-(NLys-Npm-Npm)4-NH2] (H-[Nlys][Nphe][Nphe][Nlys][Nphe][Nphe][Nlys][Nphe][Nphe][Nlys][Nphe][Nphe]-NH2) | LC50 MCF-7 (breast cancer) | µM | 13 |

Next, consider the following molecule.
Enquiry: Request the reported LC50 MCF-7 (breast cancer) associated with C[C@@H](c1ccccc1)N(CC(N)=O)C(=O)CN(C(=O)CN(CCCCN)C(=O)CN(C(=O)CN(C(=O)CN(CCCCN)C(=O)CN(C(=O)CN(C(=O)CN(CCCCN)C(=O)CN(C(=O)CN(C(=O)CNCCCCN)[C@@H](C)c1ccccc1)[C@@H](C)c1ccccc1)[C@@H](C)c1ccccc1)[C@@H](C)c1ccccc1)[C@@H](C)c1ccccc1)[C@@H](C)c1ccccc1)[C@@H](C)c1ccccc1 [Peptoid 1, H-(NLys-Nspe-Nspe)4-NH2] (H-[Nlys][Nspe][Nspe][Nlys][Nspe][Nspe][Nlys][Nspe][Nspe][Nlys][Nspe][Nspe]-NH2)
Return: 5

----------
# System: MCF-7 (breast cancer)
# ASSAY_SUMMARY: MTS cell viability assay, MCF-7
# Type: cell-based
# RUN_CONDITIONS: 72 h
EXPERIMENTAL_READOUT: LC50 MCF-7 (breast cancer) (µM)
Supply the numeric figure in µM, leaving out any unit text.

Enquiry: Missing value: LC50 MCF-7 (breast cancer), MCF-7 (breast cancer), entry C[C@@H](c1ccccc1)N(CC(N)=O)C(=O)CN(Cc1ccccc1)C(=O)CN(CCCCN)C(=O)CN(Cc1ccccc1)C(=O)CN(Cc1ccccc1)C(=O)CN(CCCCN)C(=O)CN(Cc1ccccc1)C(=O)CN(Cc1ccccc1)C(=O)CN(CCCCN)C(=O)CN(Cc1ccccc1)C(=O)CN(C(=O)CNCCCCN)[C@@H](C)c1ccccc1 [1 achiral-Nspe2, 12] . Fill in?
Return: 12

----------
# ASSAY_SUMMARY: Analytical RP-HPLC elution as relative measure of molecular hydrophobicity
# Assay type: physicochemical
# RUN_CONDITIONS: percentage of acetonitrile at elution, analytic RP-HPLC, C18 column, linear water/acetonitrile (0.1% trifluoroacetic acid) gradient 5%-95% acetonitrile over 30 min
Non-standard residues stand in square brackets, D forms with d. Residues, ends and D or L forms follow the SMILES beside them. Nspe = C[C@H](NCC(=O)O)c1ccccc1; Nlys = NCCCCNCC(=O)O
Entry flag: 1 if HPLC elution reaches 60 % ACN; -1 if it does not.

Please review the following examples before continuing.
| MOLECULE | LABEL_CLASS |
| --- | --- |
| C[C@@H](c1ccccc1)N(CC(N)=O)C(=O)CN(CCCCN)C(=O)CN(C(=O)CN(C(=O)CN(CCCCN)C(=O)CN(C(=O)CN(C(=O)CN(CCCCN)C(=O)CN(C(=O)CN(C(=O)CNCCCCN)[C@@H](C)c1ccccc1)[C@@H](C)c1ccccc1)[C@@H](C)c1ccccc1)[C@@H](C)c1ccccc1)[C@@H](C)c1ccccc1)[C@@H](C)c1ccccc1 [1 11mer, H-(NLys-Nspe-Nspe)3-NLys-Nspe-NH2] (H-[Nlys][Nspe][Nspe][Nlys][Nspe][Nspe][Nlys][Nspe][Nspe][Nlys][Nspe]-NH2) | 1 |
| C[C@@H](c1ccccc1)N(CC(N)=O)C(=O)CN(Cc1ccccc1)C(=O)CN(CCCCN)C(=O)CN(Cc1ccccc1)C(=O)CN(Cc1ccccc1)C(=O)CN(CCCCN)C(=O)CN(Cc1ccccc1)C(=O)CN(Cc1ccccc1)C(=O)CN(CCCCN)C(=O)CN(Cc1ccccc1)C(=O)CN(C(=O)CNCCCCN)[C@@H](C)c1ccccc1 [1 achiral-Nspe2, 12] | 1 |
| C[C@@H](c1ccccc1)N(CC(N)=O)C(=O)CN(C(=O)CN(CCCCN)C(=O)CN(Cc1ccccc1)C(=O)CN(Cc1ccccc1)C(=O)CN(CCCCN)C(=O)CN(C(=O)CN(C(=O)CN(CCCCN)C(=O)CN(Cc1ccccc1)C(=O)CN(Cc1ccccc1)C(=O)CNCCCCN)[C@@H](C)c1ccccc1)[C@@H](C)c1ccccc1)[C@@H](C)c1ccccc1 [1-Npm2,3,8,9, H-(NLys-Npm-Npm-NLys-Nspe-Nspe)2-NH2] | 1 |
| C[C@@H](c1ccccc1)N(CC(N)=O)C(=O)CN(CCCCN)C(=O)CN(CCCCN)C(=O)CN(C(=O)CN(C(=O)CN(CCCCN)C(=O)CN(C(=O)CN(CCCCN)C(=O)CN(CCCCN)C(=O)CN(C(=O)CN(C(=O)CNCCCCN)[C@@H](C)c1ccccc1)[C@@H](C)c1ccccc1)[C@@H](C)c1ccccc1)[C@@H](C)c1ccccc1)[C@@H](C)c1ccccc1 [1-NLys5,11, H-(NLys-Nspe-Nspe-NLys-NLys-Nspe)2-NH2] (H-[Nlys][Nspe][Nspe][Nlys][Nlys][Nspe][Nlys][Nspe][Nspe][Nlys][Nlys][Nspe]-NH2) | -1 |

// switching to the query molecule
Enquiry: Decide: HPLC elution of CC(C)CN(CC(N)=O)C(=O)CN(CCCCN)C(=O)CN(CC(C)C)C(=O)CN(CC(C)C)C(=O)CN(CCCCN)C(=O)CN(CC(C)C)C(=O)CN(CC(C)C)C(=O)CN(CCCCN)C(=O)CN(CC(C)C)C(=O)CN(CC(C)C)C(=O)CNCCCCN [1 11mer-NLeu, H-(NLys-NLeu-NLeu)3-NLys-NLeu-NH2] >= 60 % ACN?
Return: -1
